# systemTested: DNA-PK (Homo sapiens (Human), UniProt P78527)
# testSummary: DNA-PK/biochemical assay (FlashPlate kinase assay)
# assaySetup: 5 μM ATP, 90 min, room temperature
pIC50: −log10 of the molar value.
The compounds listed here are annotated with their pIC50.

compound	pIC50
COc1cc2ncc3c(c2cc1-c1cnn(C)c1)n(-c1ccc(C#N)cc1F)c(=O)n3C	> 7.00
COc1cc2ncc3[nH]c(=O)n(-c4ccc(C#N)cc4F)c3c2cc1OCc1ccccc1	> 7.00
COCCNC(=O)C(Oc1cc2c(cc1OC)ncc1c2n(-c2ccc(C#N)cc2F)c(=O)n1C)c1ccc(F)cc1 (stereo not shown)	6.30 to 7.00
COc1cc2ncc3c(c2cc1-c1cccnc1)n(-c1ccc(C#N)cc1F)c(=O)n3C	> 7.00
COc1cc2ncc3c(c2cc1OCc1ccccc1Br)n(-c1ccc(C#N)cc1F)c(=O)n3C	> 7.00
COc1cc2ncc3c(c2cc1OCc1cncs1)n(-c1ccc(C#N)cc1F)c(=O)n3C	> 7.00
COc1cc2ncc3c(c2cc1OC)n(-c1ccc(C#N)cc1)c(=O)n3C	> 7.00
COc1cc2ncc3c(c2cc1OCc1sccc1S(=O)(=O)N1CCOCC1)n(-c1ccc(C#N)cc1F)c(=O)n3C	6.30 to 7.00
COc1cc2ncc3c(c2cc1-c1cc(C(F)(F)F)nn1C)n(-c1ccc(C#N)cc1F)c(=O)n3C	6.30 to 7.00
COc1cc2ncc3c(c2cc1/C=C/c1ccsc1)n(-c1ccc(C#N)cc1F)c(=O)n3C	> 7.00
COc1cc2ncc3c(c2cc1OCc1ccccc1)n(-c1ccc(C#N)cc1F)c(=O)n3C	> 7.00
COc1cc2ncc3c(c2cc1OCc1ccccc1)n(-c1ccc(C#N)cc1)c(=O)n3C	> 7.00
COc1cc2ncc3c(c2cc1O)n(-c1ccc(C#N)cc1F)c(=O)n3C	> 7.00
COc1cc2ncc3c(c2cc1OC(C(N)=O)c1ccc(F)cc1)n(-c1c(F)cc(C#N)cc1F)c(=O)n3C (stereo not shown)	> 7.00
COc1cc2ncc3c(c2cc1OCc1cccs1)n(-c1c(F)cc(C#N)cc1F)c(=O)n3C	> 7.00
COc1ccc(-c2cc3c(cc2OC)ncc2c3n(-c3ccc(C#N)cc3F)c(=O)n2C)cn1	> 7.00

----------
# systemTested: DNA-PK (Homo sapiens (Human))
# testSummary: DNA-PK/biochemical assay (FlashPlate kinase assay)
# assaySetup: 5 μM ATP, 90 min, room temperature
pIC50: −log10 of the molar value.

molecule	pIC50
COc1cc2ncc3c(c2cc1OC(CN)c1cccs1)n(-c1ccc(C#N)cc1F)c(=O)n3C (stereo not shown) [Compound 31]	6.30 to 7.00
COC(=O)n1c(=O)n(-c2ccc(C#N)cc2F)c2c3cc(OCc4ccccc4)c(OC)cc3ncc21 [Compound 12]	> 7.00
COc1cc2ncc3c(c2cc1OC(CN)c1ccc(F)cc1)n(-c1ccc(C#N)cc1F)c(=O)n3C (stereo not shown) [Compound 32]	6.00 to 6.30
COc1cc2ncc3c(c2cc1-c1cn[nH]c1)n(-c1ccc(C#N)cc1F)c(=O)n3C [Compound 37]	> 7.00
COc1cc2ncc3c(c2cc1OC(C(N)=O)c1ccc(F)cc1)n(-c1ccc(C#N)cc1F)c(=O)n3C (stereo not shown) [Compound 15]	> 7.00
COc1cc2ncc3c(c2cc1OCc1ccncc1)n(-c1ccc(C#N)cc1F)c(=O)n3C [Compound 20]	> 7.00
COc1cc2ncc3c(c2cc1OCc1ccc(F)cc1Cl)n(-c1ccc(C#N)cc1F)c(=O)n3C [Compound 23]	> 7.00
COc1cc2ncc3[nH]c(=O)n(-c4ccc(C#N)cc4)c3c2cc1OC [Compound 1]	> 7.00
COc1cc2ncc3c(c2cc1OCc1ccc(F)cc1Br)n(-c1ccc(C#N)cc1F)c(=O)n3C [Compound 22]	> 7.00
COc1cc2ncc3c(c2cc1OCc1ccsc1)n(-c1ccc(C#N)cc1F)c(=O)n3C [Compound 13]	> 7.00
COc1cc2ncc3c(c2cc1OCc1ccc(F)c(Cl)c1)n(-c1ccc(C#N)cc1F)c(=O)n3C [Compound 24]	> 7.00
COc1cc2ncc3c(c2cc1CCc1ccsc1)n(-c1ccc(C#N)cc1F)c(=O)n3C [Compound 42]	6.30 to 7.00
COc1cc2ncc3c(c2cc1-c1ccnn1C)n(-c1ccc(C#N)cc1F)c(=O)n3C [Compound 38]	6.30 to 7.00
COc1cc2ncc3c(c2cc1-c1cnc2ccccc2c1)n(-c1ccc(C#N)cc1F)c(=O)n3C [Compound 35]	> 7.00
COc1cc2ncc3[nH]c(=O)n(-c4ccc(C#N)cc4)c3c2cc1OCc1ccccc1 [Compound 6]	> 7.00
COc1cc2ncc3c(c2cc1O)n(-c1ccc(C#N)cc1)c(=O)n3C [Compound 3]	> 7.00
